These measurements were taken from PubChem BioAssay (NCI).

# Test system: M14 melanoma
# Assay Text: NCI-60 one-dose screen, 48 h
# Stated Conditions: 10 µM unless noted
This is part of a sample that, as a whole, favours compounds with a hit. Of some 83,000 tested, about 20% had one in any assay. Active and inactive are the calls of the source. The calls were made as follows: active = growth percent below 10; inactive = the rest.
Response enum: active, inactive

Assay result, entry `O=C(c1ccc(O)cc1)[C@@H]1[C@@H]2CCCN2[C@@]2(C(=O)N(C(=O)c3ccc(F)cc3)c3ccccc32)[C@H]1c1ccc(F)cc1` — outcome?
inactive

Assay result, entry `COc1cc(/C=C/C(=O)c2ccc(N3CCN(C)CC3)cc2)ccc1F` — outcome?
inactive

Assay result, entry `Oc1ccccc1-c1nnc(SCc2ccc(O)c3ncccc23)o1` — outcome?
inactive

Assay result, entry `CCc1ccc(NC(=O)N[C@@H](Cc2cccc(F)c2)C(=O)N[C@@H]2C(=O)N3CCC[C@H]3C(=O)N3CCCC[C@H]3C(=O)N[C@@H](C)C(=O)N3C[C@H](C)C[C@H]3C(=O)O[C@H]2C)c(F)c1` — outcome?
inactive

Assay result, entry `O=C1c2c(O)cc(O)cc2O[C@@H](c2ccc(O)cc2)[C@@H]1c1c(O)cc(O)c2c(=O)cc(-c3ccc(O)c(O)c3)oc12` — outcome?
inactive

Assay result, entry `CCN(CC)CCN1C(=O)c2c(c3c4cccnc4[nH]c3c3ccc4ccccc4c23)C1=O` — outcome?
inactive

Assay result, entry `Oc1ccc(CSc2nnc(-c3ccc(Br)cc3)n2-c2ccccc2)c2cccnc12` — outcome?
inactive

Assay result, entry `COc1ccc(Cn2cc3c(c2-c2ccccc2)CCCc2cnoc2-3)cc1` — outcome?
inactive

Assay result, entry `CN(C)c1ccc(/C=N/Nc2nc(N/N=C/c3ccc(N(C)C)cc3)nc(N3CCOCC3)n2)cc1` — outcome?
inactive

Assay result, entry CC(C)=CCC[C@](C)(O)[C@H]1CC[C@]2(C)[C@@H]1CC[C@@H]1[C@@]3(C)CCC(NC(=O)c4ccccc4C(=O)O)C(C)(C)[C@@H]3CC[C@]12C (stereo partly specified) — outcome?
inactive

Assay result, entry `CSc1ccc(/C(=N/N=C(N)N)c2ccccc2)cc1` — outcome?
active

Assay result, entry `O=C(Nc1cc(Cl)cc(Cl)c1)Nc1nc2ccc([N+](=O)[O-])cc2s1` — outcome?
active

Assay result, entry `O=C(/C=C1\C=CN(CCCCF)c2ccccc21)n1ccc2ccccc21` — outcome?
inactive

Assay result, entry `C#CCOc1ccc(/C=N/Nc2nc(-c3cc4cc(Br)cc(Br)c4oc3=O)cs2)cc1` — outcome?
inactive

Assay result, entry CC1OC(O[C@@H]2C(O)C(CO)OC(O[C@H]3COC(O[C@H]4CC[C@]5(C)[C@H]6CC[C@]78OC[C@@]9(CC[C@](C)(C=O)C[C@H]97)[C@H](O)C[C@@]8(C)[C@]6(C)CC[C@H]5C4(C)C)[C@@H](OC4OC(CO)[C@@H](O)[C@@H](O)[C@@H]4O)[C@@H]3O)[C@H]2OC2OC[C@@H](O)[C@@H](O)[C@@H]2O)[C@@H](O)[C@@H](O)[C@H]1O (stereo partly specified) — outcome?
active

Assay result, entry CCN(CC)CCCC(C)NCC(=O)NC(c1ccc2c(c1)OCO2)c1cc(Cl)c2cccnc2c1O (stereo unspecified) — outcome?
active
